target.or.test.system: Heat shock protein HSP90 (Homo sapiens) (UniProt P07900+P08238)
assay.name: Inhibition of HSP90 in human H1299 cells assessed as reduction in HIF-1alpha at 100 nM incubated for 72 hrs and subsequently incubated under hypoxic conditions for 12 hrs by Western blot analysis relative to control
Format: cell-based
condition.context: values are per cent of control
Lab note: anything with response, % of control below 50% is marked yes (1); values at 50% or higher are marked no (0).

Quick check: does `COc1ccc(N(CCN2CCN(C)CC2)C(=O)c2ccc3c(c2OC)C=CC(C)(C)O3)nc1OC` have response, % of control under 50%?
yes (1)

Take the molecule `COc1ccc(N(Cc2ccc(F)cc2)C(=O)c2ccc3c(c2OC)C=CC(C)(C)O3)nc1OC` and say whether its response, % of control is less than 50%.
no (0)

response, % of control under 50%? Item: `COc1ccc(N(CCN2CCCCC2)C(=O)c2ccc3c(c2OC)C=CC(C)(C)O3)c(F)c1OC`
no (0)

Below 50% on response, % of control? Entry `COc1ccc(N(CCN2CCCCC2)C(=O)c2ccc3c(c2OC)C=CC(C)(C)O3)nc1OC`
no (0)

I wonder whether `COc1ccc(N(CCN2CCNCC2)C(=O)c2ccc3c(c2OC)C=CC(C)(C)O3)cc1OC` has response, % of control below 50%. Can you tell?
no (0)

----------
target.or.test.system: Heat shock protein HSP90 (Homo sapiens) (UniProt P07900+P08238)
assay.name: Inhibition of HSP90 in human H1299 cells assessed as reduction in HIF-1alpha at 100 nM incubated for 72 hrs and subsequently incubated under hypoxic conditions for 12 hrs by Western blot analysis relative to control
Type: cell-based
condition.context: values are per cent of control
Response field label: string, one of 1 (response, % of control strictly below 60%) or -1.

Study these solved cases before continuing.
> print(dat)
                                test.smiles                     target.or.test.system  discrete.label
1  COc1ccc(N(CCN2CCN(C)CC2)C(=O)c2ccc3c(c2OC)C=CC(C)(C)O3)c(F)c1OC  Heat shock protein HSP90 (Homo sapiens) (UniProt P07900+P08238)               1
2  COc1ccc(N(Cc2ccc(Cl)cc2)C(=O)c2ccc3c(c2OC)C=CC(C)(C)O3)nc1OC  Heat shock protein HSP90 (Homo sapiens) (UniProt P07900+P08238)               1
3  COc1ccc(N(CCOCc2ccccc2)C(=O)c2ccc3c(c2OC)C=CC(C)(C)O3)cc1OC  Heat shock protein HSP90 (Homo sapiens) (UniProt P07900+P08238)              -1
4  COc1ccc(N(CCN(C)C)C(=O)c2ccc3c(c2OC)C=CC(C)(C)O3)nc1OC  Heat shock protein HSP90 (Homo sapiens) (UniProt P07900+P08238)               1
5  COc1ccc(N(CCN)C(=O)c2ccc3c(c2OC)C=CC(C)(C)O3)cc1OC  Heat shock protein HSP90 (Homo sapiens) (UniProt P07900+P08238)               1

response, % of control under 60%? Item: `COc1ccc(N(Cc2ccccc2)C(=O)c2ccc3c(c2OC)C=CC(C)(C)O3)cc1OC`
-1

Answer whether the compound `COc1ccc(N(CCCN)C(=O)c2ccc3c(c2OC)C=CC(C)(C)O3)cc1OC` has response, % of control strictly less than 60%
-1

Dear colleague, could you confirm whether response, % of control of `COc1ccc(N(CCN2CCN(C)CC2)C(=O)c2ccc3c(c2OC)C=CC(C)(C)O3)cc1OC` falls below 60%? Thanks.
-1

----------
target.or.test.system: Heat shock protein HSP90 (Homo sapiens) (UniProt P07900+P08238)
assay.name: Inhibition of HSP90 in human H1299 cells assessed as reduction in HIF-1alpha at 10 nM incubated for 72 hrs and subsequently incubated under hypoxic conditions for 12 hrs by Western blot analysis relative to control
Assay type: cell-based
condition.context: values are per cent of control
Kindly apply the following: fulfilled if response, % of control is less than 90%, not fulfilled in every other case.

// below: answered molecules
> print(dat)
                                test.smiles  discrete.label
1  COc1ccc(N(CCC2CCNCC2)C(=O)c2ccc3c(c2OC)C=CC(C)(C)O3)nc1OC   not fulfilled
2  COc1ccc(N(CCOCc2ccccc2)C(=O)c2ccc3c(c2OC)C=CC(C)(C)O3)nc1OC       fulfilled
3  COc1ccc(N(CCN2CCN(C)CC2)C(=O)c2ccc3c(c2OC)C=CC(C)(C)O3)c(F)c1OC       fulfilled

Confirm or reject: response, % of control of `COc1ccc(N(CCN(C)C)C(=O)c2ccc3c(c2OC)C=CC(C)(C)O3)c(F)c1OC` lies strictly below 90%
not fulfilled

Could you please tell me whether response, % of control recorded for `COc1ccc(N(CCN(C)C)C(=O)c2ccc3c(c2OC)C=CC(C)(C)O3)nc1OC` is less than 90%?
fulfilled

----------
Below, each of the molecules is paired with its reported response, % of control value.
target.or.test.system: Heat shock protein HSP90 (Homo sapiens) (UniProt P07900+P08238)
assay.name: Inhibition of HSP90 in human H1299 cells assessed as reduction in HIF-1alpha at 100 nM incubated for 72 hrs and subsequently incubated under hypoxic conditions for 12 hrs by Western blot analysis relative to control
Type: cell-based
condition.context: values are per cent of control
// units = %; emit number, no label

> print(dat)
                                test.smiles       measured.endpoint  unit.info  endpoint.value
1  COc1ccc(N(CCN(C)C)C(=O)c2ccc3c(c2OC)C=CC(C)(C)O3)c(F)c1OC  response, % of control          %            53.3
2  CNCCN(C(=O)c1ccc2c(c1OC)C=CC(C)(C)O2)c1ccc(OC)c(OC)c1  response, % of control          %            75.9
3  COc1ccc(N(CCN)C(=O)c2ccc3c(c2OC)C=CC(C)(C)O3)nc1OC  response, % of control          %            33.3
4  COc1ccc(N(CCN2CCNCC2)C(=O)c2ccc3c(c2OC)C=CC(C)(C)O3)c(F)c1OC  response, % of control          %            54.9

Supply recorded response, % of control for `COc1ccc(N(C(=O)c2ccc3c(c2OC)C=CC(C)(C)O3)c2ccc(C)cc2)cc1OC` here.
58.9

Tell us which response, % of control value is on record for `COc1ccc(N(C(=O)c2ccc3c(c2OC)C=CC(C)(C)O3)c2ccc(OC)c(OC)c2)cc1`
61.9

----------
target.or.test.system: Heat shock protein HSP90 (Homo sapiens) (UniProt P07900+P08238)
assay.name: Inhibition of HSP90 in human H1299 cells assessed as reduction in HIF-1alpha at 100 nM incubated for 72 hrs and subsequently incubated under hypoxic conditions for 12 hrs by Western blot analysis relative to control
Type: cell-based
condition.context: values are per cent of control
measured.endpoint: response, % of control (%)
Answer in %, number only, no unit symbol.

# assay system Heat shock protein HSP90 (Homo sapiens) (UniProt P07900+P08238): give response, % of control of `COc1ccc(N(CCNC(C)=O)C(=O)c2ccc3c(c2OC)C=CC(C)(C)O3)cc1OC`
127

----------
target.or.test.system: Heat shock protein HSP90 (Homo sapiens) (UniProt P07900+P08238)
assay.name: Inhibition of HSP90 in human H1299 cells assessed as reduction in HIF-1alpha at 100 nM incubated for 72 hrs and subsequently incubated under hypoxic conditions for 12 hrs by Western blot analysis relative to control
Type: cell-based
condition.context: values are per cent of control
Rule: response, % of control below 80% gives yes (1), anything at or above gives no (0).

// below: answered compounds
> print(dat)
                                test.smiles  discrete.label
1  COc1ccc(N(CCCN(C)C)C(=O)c2ccc3c(c2OC)C=CC(C)(C)O3)nc1OC         yes (1)
2  COc1ccc(N(CCCN)C(=O)c2ccc3c(c2OC)C=CC(C)(C)O3)c(F)c1OC         yes (1)
3  COc1ccc(N(CCO)C(=O)c2ccc3c(c2OC)C=CC(C)(C)O3)nc1OC          no (0)
4  COc1ccc(N(Cc2ccc(C)cc2)C(=O)c2ccc3c(c2OC)C=CC(C)(C)O3)nc1OC         yes (1)
5  COc1ccc(N(C)C(=O)c2ccc3c(c2OC)C=CC(C)(C)O3)nc1OC         yes (1)

Quick check: does `COc1ccc(N(C(=O)c2ccc3c(c2OC)C=CC(C)(C)O3)c2ccccc2)cc1OC` have response, % of control under 80%?
yes (1)

is_below(response, % of control, 80%) for `COc1ccc(N(CCN2CCCCC2)C(=O)c2ccc3c(c2OC)C=CC(C)(C)O3)cc1OC` ?
no (0)

response, % of control strictly < 80% for this compound? `COc1ccc(N(Cc2cccnc2)C(=O)c2ccc3c(c2OC)C=CC(C)(C)O3)nc1OC`
no (0)

Consider the compound `COc1ccc(N(CCN)C(=O)c2ccc3c(c2OC)C=CC(C)(C)O3)c(F)c1OC` . Is its response, % of control strictly less than 80%?
no (0)

Determine whether this compound shows response, % of control lower than 80% (ties excluded): `CNCCN(C(=O)c1ccc2c(c1OC)C=CC(C)(C)O2)c1ccc(OC)c(OC)c1F`
no (0)

# strict comparison: is reported response, % of control < 80%? input = `COc1ccc(NC(=O)c2ccc3c(c2OC)C=CC(C)(C)O3)c(F)c1OC`
no (0)

Is it true that response, % of control reported for `COc1ccc(CN(C(=O)c2ccc3c(c2OC)C=CC(C)(C)O3)c2ccc(OC)c(OC)n2)cc1` is less than 80%?
yes (1)
